Value source: ChEMBL document CHEMBL1687856

- assay.overview: Inhibition of Pdr5p-dependent ATPase activity in Saccharomyces cerevisiae AD124567 assessed as release of inorganic phosphate after 60 mins […]
property.label: IC50 (µM)
// return numeric value only (unit: µM, not printed)

Provide measured IC50 value, entry: Nc1ncc(/C=C/CNC(=O)c2cc(Br)c(Br)[nH]2)[nH]1 20
